Ref: PubChem BioAssay (NCI)

assay: NCI Yeast Anticancer Drug Screen. Data for the bub3 strain (AID 167); settings: S. cerevisiae bub3 mutant strain, at 5.0 µM (retest, dose inferred, filed as 0.5)
About 79,000 compounds went through this panel and 15% of them were active in at least one assay; those are over-represented in the sample as a whole. Activity calls are given as the source filed them. Cut-off read from the data, not from the text of the source: active = growth inhibition above about 70%; inactive = the rest.
Select the matching outcome among active, inactive

CC(CCl)OC(=O)Nc1cccc(C(F)(F)F)c1 (stereo unspecified)	inactive
CCC/C(=N\NC(=S)N(C)C)c1ccccn1	active
COc1ccc(-c2c3c(cc4cc5c(cc24)OCO5)C(=O)OC3)cc1OC	inactive
Clc1cc2ccccc2c2ccccc12	inactive
Cc1c2cc[n+](C)cc2c(C)c2c1[nH]c1ccc(Cl)cc12	inactive

Each molecule tested received a call. Report the one for C/C(=N\NC(=S)N1CC(C)OC(C)C1)c1ncccn1 (stereo unspecified) .
inactive

Each molecule tested received a call. Report the one for CCCCNC(=S)NC1OC(CO)C(O)C(O)C1O (stereo unspecified) .
inactive

Each molecule tested received a call. Report the one for CN(/N=C\c1cccc([N+](=O)[O-])c1)C(c1cccc([N+](=O)[O-])c1)N(C)/N=C/c1cccc([N+](=O)[O-])c1 (stereo unspecified) .
inactive

Each molecule tested received a call. Report the one for Cc1ccc(C(=O)CCCN2CCOCC2)c(C)c1 .
inactive

Each molecule tested received a call. Report the one for COc1ccc2nc(NC(=O)Nc3c(Cl)cccc3Cl)sc2c1 .
inactive

Each molecule tested received a call. Report the one for COc1ccc(CCCCC(=O)O)cc1O .
inactive

Each molecule tested received a call. Report the one for CCOC(=O)CSC(=S)Nc1ccc(Cl)cc1 .
inactive

Each molecule tested received a call. Report the one for Cc1cc(C[P+](c2ccccc2)(c2ccccc2)c2ccccc2)c(C)cc1C[P+](c1ccccc1)(c1ccccc1)c1ccccc1 .
inactive

* * *

assay: NCI Yeast Anticancer Drug Screen. Data for the mec2-1 strain (AID 157); settings: S. cerevisiae mec2-1 strain, at 5.0 µM (retest, dose inferred, filed as 0.5), hits give high values
Compounds without any hit were thinned out: in the full panel of roughly 79,000, 15% have a hit.
Reported metric: growth inhibition (%)
I only need the number, in %, no unit after it.

Before answering, review these 8 worked examples.
C=C(CN(C)C)C(=O)c1ccccc1[N+](=O)[O-]	10
CCCCCCCCC(=O)NCCCNCCCNC(=O)CCCCCCCC	-18
CCCCCN(CCCCC)CCCNc1ccc(C)c2sc3ccccc3c(=O)c12	99
CCCCCNC(=O)C1C(=O)N(CCCCC)C(=O)/C1=N\N (stereo not given)	-3
NCC(=O)N/N=C/c1ccc([N+](=O)[O-])o1	4
CN(Cc1cnc2nc(N)nc(N)c2n1)c1ccc(C(=O)NC(CCC(=O)O)C(=O)O)c(Cl)c1Cl (stereo not given)	41
CCCCN(CCCC)CC(O)Cc1cc2ccccc2c2ccccc12 (stereo not given)	1
CC(=O)[O-].[Mn+3].[O-]c1ccc(Cl)cc1C=NCCN=Cc1cc(Cl)ccc1[O-]	-3

growth inhibition measured on O.O.O=Cc1cc(Br)cc(Br)c1O.O=Cc1cc(Br)cc(Br)c1O.[Co] = 25

growth inhibition measured on c1ccc2nc(C[n+]3cccc4ccccc43)ccc2c1 = 73

growth inhibition measured on CC(=O)N(C1=C(Cl)C(=O)c2ccccc2C1=O)c1ccc(F)cc1 = 39

growth inhibition measured on O=C(C[n+]1ccccc1Cl)c1ccc(Oc2ccc(C(=O)C[n+]3ccccc3Cl)cc2)cc1 = -5

growth inhibition measured on CNC(=O)OCc1c(COC(=O)NC)c(-c2ccc(Cl)c(Cl)c2)n2c1Cc1ccccc1C2 = -21

growth inhibition measured on CCCCC(=O)c1nc(N(CC2CCCCC2)C(=O)NC)sc1N = -4

growth inhibition measured on COc1cccc2c1C(=O)c1c(O)c3c(c(O)c1C2=O)CC(O)(C(C)=O)CC3OC1CC(NCC2(O)OCC(O)C2O)C(O)C(C)O1 (stereo not given) = 34

growth inhibition measured on C=C(CN(C)C)C(=O)c1ccc(C)cc1C = 18

growth inhibition measured on COc1ccc2nc(NC(=O)Nc3c(Cl)cccc3Cl)sc2c1 = -3
